Biological target: Estrogen receptor (Homo sapiens) (UniProt P03372)
Sequence (P03372 whole entry, looked up): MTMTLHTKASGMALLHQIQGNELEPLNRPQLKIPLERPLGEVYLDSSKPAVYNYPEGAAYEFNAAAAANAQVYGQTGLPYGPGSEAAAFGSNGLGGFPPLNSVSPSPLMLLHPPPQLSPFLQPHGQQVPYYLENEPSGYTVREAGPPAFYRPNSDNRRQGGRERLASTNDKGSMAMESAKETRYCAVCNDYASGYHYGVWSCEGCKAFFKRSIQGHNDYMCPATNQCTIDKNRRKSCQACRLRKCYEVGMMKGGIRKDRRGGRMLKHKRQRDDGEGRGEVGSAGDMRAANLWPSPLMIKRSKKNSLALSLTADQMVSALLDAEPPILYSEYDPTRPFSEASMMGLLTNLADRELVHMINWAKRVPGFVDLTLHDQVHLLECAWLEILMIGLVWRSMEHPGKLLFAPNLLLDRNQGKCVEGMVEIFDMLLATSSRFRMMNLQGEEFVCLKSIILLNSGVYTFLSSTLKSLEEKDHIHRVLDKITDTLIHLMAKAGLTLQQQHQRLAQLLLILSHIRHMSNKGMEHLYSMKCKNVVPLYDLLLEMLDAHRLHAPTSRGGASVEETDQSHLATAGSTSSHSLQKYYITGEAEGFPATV
Experiment: qHTS assay for small molecule antagonists of estrogen receptor alpha signaling (AID 588513)
Details: ER-alpha-UAS-bla HEK293, beta-lactamase ratio, antagonist mode; series mostly up to 76.9 µM
The source made the active and inactive calls. Calls come from the whole dose curve; as a rule, active = well fitted curve in the direction sought with a large enough effect in the signal ratio, with a control signal flat (not every such curve was filed as active); inconclusive = small, poorly fitted or top-dose-only effect, or effect the other way, or a change in a side signal; inactive = no such curve, though single readings can be large or run the other way; the % refers to the signal ratio.
Outcome codes: t for active, f for inactive

compound	assigned.class
S=C=Nc1cccc2ccccc12	f
COc1nc(NC(C)C)nc(NC(C)C)n1	f
ClC(Cl)(Cl)c1ccccc1	f
ClC1=C(Cl)C2(Cl)C3C4CC(C5OC45)C3C1(Cl)C2(Cl)Cl (configuration not stated)	f
Cc1ccc(O)c(C)c1	f
C[C@H]1CCCC(=O)CCC/C=C/c2cc(O)cc(O)c2C(=O)O1	t
COC(=O)NC(=S)Nc1ccccc1NC(=S)NC(=O)OC	f
Cc1ccc2ccccc2c1	f
CCSC(=O)Cl	f
C=C(C)C#N	f
O=[N+]([O-])c1ccc(Cl)c(Cl)c1	f
CCCCOC(=O)c1ccccc1C(=O)OCCCC	f
COc1ccc(C=O)cc1OC	f
CCC[CH2][Sn]([Cl])([Cl])[Cl]	f
C1CCC2CCCCC2C1 (configuration not stated)	f
O=C(Cl)C(Cl)(Cl)Cl	f
CC(C)N1C(=O)c2ccccc2NS1(=O)=O	f
O=C(Cl)/C=C/C(=O)Cl	f
CCN(CC)c1ccccc1	f
c1nc[nH]n1	f
C[N+](C)(C)Cc1ccccc1	f
ClC1=C(Cl)C2(Cl)C3C(Cl)C=CC3C1(Cl)C2(Cl)Cl (configuration not stated)	f
ClC(Cl)=C(c1ccc(Cl)cc1)c1ccc(Cl)cc1	f
[O-][Br+2]([O-])O	f
O=C=NC1CCCCC1	f
CCCCCCCC(=O)Cl	f
N#Cc1c(Cl)cccc1Cl	f
Cc1cccc(C#N)c1	f
Clc1nc(Cl)nc(Cl)n1	f
c1ccc(-c2ccccc2)cc1	f
Brc1ccc(Oc2cc(Br)c(Br)cc2Br)c(Br)c1	f
Cc1ccc([N+](=O)[O-])cc1C	f
